Target: TJP2_1, Q9UDY2
Sequence (Q9UDY2 24-128): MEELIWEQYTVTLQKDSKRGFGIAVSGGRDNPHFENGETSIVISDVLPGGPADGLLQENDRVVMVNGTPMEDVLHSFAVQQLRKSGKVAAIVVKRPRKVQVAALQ
Assay: holdup assay
Design: key: below the threshold = too weak to quantify, mostly under pKd 3.1 to 4
Details: plain residues with an end cap or a label only (N-terminal biotin on a linker: ado-ado)
Test readout: pKd

Guide cases for pKd, answers given:
Look up and report measured pKd for this entry: PAALPESTHM [SLC9A3, P48764] below the threshold

Look up and report measured pKd for this entry: AHGSTRDQSI [KCNB1, Q14721] below the threshold

Look up and report measured pKd for this entry: KLQNPNQSVV [TYRP1, P17643] below the threshold

Look up and report measured pKd for this entry: VYEVPVETKF [SLC26A3, P40879] 4.02

Look up and report measured pKd for this entry: PKSNSSKEYV [CLDN7, O95471] 4.28

Alright, here's another binder for you.
Look up and report measured pKd for this entry: TNSKQGETTV [FZD1, Q9UP38] below the threshold
